Source of measurements: PubChem BioAssay (NCI)

Tested on: PC-3 prostate
Experiment: NCI-60 one-dose screen, 48 h (100 = growth as untreated, 0 = no growth, -100 = all killed)
Settings: 10 µM unless noted
This is part of a sample that, as a whole, favours compounds with a hit. Of some 83,000 tested, about 20% had one in any assay.
// returns FALSE unless growth is strictly below 90%, in which case TRUE

Request: State whether 90% exceeds growth recorded for `CCOC(=O)c1c2ncccc2n2c(=O)n(-c3ccc(Cl)cc3)nnc12` .
Result: FALSE

Request: Could you please tell me whether growth recorded for OCC1C2C=CC(C2)C1CO (stereo unspecified) is less than 90%?
Result: TRUE

Request: Item `COc1ccc(-c2cc(-c3cccnc3)nc3sc4c(=O)n(-c5ccc(C)cc5)nnc4c23)cc1OC` : growth beneath 90%, strictly?
Result: FALSE

Request: Please determine if `c1c2c(cc3c1OCO3)Cc1cc3c(cc1Cc1cc4c(cc1C2)OCO4)OCO3` is below 90% in terms of growth.
Result: FALSE

Request: Confirm or reject: growth of `COc1ccc(/C=C2\N=C3SC=C(N)N3C2=O)cc1` lies strictly below 90%
Result: TRUE

Request: Is it true that growth reported for C=C1CC2(OC1=O)C(=O)Nc1ccccc12 (stereo unspecified) is less than 90%?
Result: TRUE

Request: Please determine if `O=C1Nc2ccccc2/C1=C/C(=N/c1nnc(-c2ccc(Cl)cc2)s1)c1ccccc1` is below 90% in terms of growth.
Result: TRUE

Request: For this compound, is growth lower than 90%? `Cc1ccc2c(NCCCN(C)C)c3c(C)nn(C)c3nc2c1`
Result: TRUE

Request: I wonder whether `O=C1c2c[n+](Cc3ccccc3)ccc2-c2nc3ccccc3c3ccnc1c23` has growth below 90%. Can you tell?
Result: TRUE

Request: For `Cc1ccc(SCN2CCN(c3cccc(Cl)c3)CC2)cc1` , is the recorded growth below the cut-off of 90%?
Result: FALSE

###

System: MCF7 breast
Assay: NCI-60 one-dose screen, 48 h (100 = growth as untreated, 0 = no growth, -100 = all killed)
Settings: 10 µM unless noted
This is part of a sample that, as a whole, favours compounds with a hit. Of some 83,000 tested, about 20% had one in any assay.
Classification field: enter y for growth values not below 40%, n for values below it.

Request: Does growth meet or surpass 40% for `Cc1cc(Nc2nc(N3CCOCC3)nc3ccccc23)n[nH]1` ?
Result: y

Request: Is the recorded value of growth equal to or greater than 40% for this molecule? `Nc1cc2ccncc2c2ccccc12`
Result: y

Request: Can `O=S(=O)(Nc1ccc(F)c(Cl)c1)c1ccc(-c2cnc(C3CC3)o2)cc1` be said to have growth at or above 40%?
Result: n

Request: Answer whether growth of `CCC(=O)Oc1ccc(/C(=C(\C)c2ccccc2)c2ccc(OCCN(CC)CC)cc2)cc1` is greater than or equal to 40%.
Result: n

Request: Hello, I need to know if `Oc1ccc2c(=S)cc(-c3ccc(Br)cc3)oc2c1O` has measured growth not below 40%. Thanks!
Result: n

Request: API: above_or_equal(metric=growth, cutoff=40%) for item `COc1cc2nc3cc([N+](=O)[O-])ccc3c(NCCCNCC(C)(C)O)c2cc1OC`
Result: n

###

System: OVCAR-4 ovarian
Experiment: NCI-60 one-dose screen, 48 h (100 = growth as untreated, 0 = no growth, -100 = all killed)
Conditions: 10 µM unless noted
About 83,000 compounds went through this panel and 20% of them were active in at least one assay; those are over-represented in the sample as a whole. Calls of active or inactive are those of the source. How the source made its calls: active means growth percent below 10; inactive means the rest.
REPORTED_PROPERTY: growth

compound `CCCCCCCCCCNC(=O)CCl` , growth observed: 80.3% (inactive)

Summary for this compound, `O=C1/C(=C/c2ccccc2)CN(CCC(=O)N2C/C(=C\c3ccccc3)C(=O)/C(=C/c3ccccc3)C2)C/C1=C\c1ccccc1` : growth is 67.8% (inactive)

Reported growth for CCCCN(CCCC)CCC(C)(O)c1cc2ccccc2c2ccccc12 (stereo not given) was 109% (inactive)

Lab note: measured growth of `CC1=CC(=O)CC(C)(C)[C@@]1(O)/C=C/[C@@H](C)O` was 106% (inactive)

Memo: COc1cc(C2C(C(=O)c3cccs3)=C(O)C(=O)N2CCN2CCOCC2)cc(OC)c1OC (stereo not given) , reported growth: 110% (inactive)

Query `CN(C)c1ccc(/C=C(\C#N)c2nc3ccccc3s2)cc1` yields growth of 90.9% (inactive)

Entry under test: `Clc1cccc(Nc2nc(Nc3cnc4ccccc4c3)c3[nH]cnc3n2)c1` . Its growth was 93.9% (inactive)

Documented growth of `COc1nc2c(cc1S(=O)(=O)c1ccccc1)CCc1c-2cnn1-c1ccc(Cl)cc1` : 90.4% (inactive)

Per the record, `COC1=CC(=O)C(OC)=C(OC)C1=O` has growth of 77.4% (inactive)

growth reported for this compound C=C1CCC2C3(C)COC(c4ccc(SC)cc4)OC3CCC2(C)C1C/C=C1/C(=O)OCC1O (stereo not given) : 59.1% (inactive)

###

I'd be grateful if you could share measured growth for these entries.
Tested on: NCI-H23 lung
Test: NCI-60 one-dose screen, 48 h (100 = growth as untreated, 0 = no growth, -100 = all killed)
Details: 10 µM unless noted
About 83,000 compounds went through this panel and 20% of them were active in at least one assay; those are over-represented in the sample as a whole. Active and inactive are the calls of the source. The calls were made as follows: active = growth percent below 10; inactive = the rest.

The molecule `CCCCCn1cnc2c(=S)nc[nH]c21` showed growth equal to 102% (inactive)

The recorded growth for entry `CN1CCN(Cc2ccc(NC(=O)c3[nH]ncc3Nc3ncnc4c3CCC4)cc2)CC1` equals 5.19% (active)

// growth value for `Cc1cc(N/N=C/c2nc(-c3ccc(Cl)cc3)oc2C)c2cc(Br)ccc2n1` : 96.4% (inactive)

Sure, the documented growth for `CCc1ccc(C(c2ccc(CC)cc2)C(Cl)(Cl)CCl)cc1` is 92.8% (inactive)

Sure, the documented growth for `N=c1c2ccccc2nc2n1CCCCC2` is 102% (inactive)

Value of growth reported for the molecule CN1CCCCC1CCN1c2ccccc2Sc2ccc(Br)cc21 (stereo unspecified) is 77.4% (inactive)

growth reading for `O=c1c2cccc3c(Nc4c(F)cccc4F)ccc(c32)c2nc3ccccc3n12` : 85.8% (inactive)

Entry `CC/C(Cc1ccccc1)=C(/c1ccc(O)cc1)c1ccc(OCCN2CCCC2)cc1` ; growth = 8.75% (active)

growth in this record for `CCN(CC)CCC(=O)Nc1ccc(Cn2nnc3c2C(=O)c2nnn(Cc4ccc(NC(=O)CCN(CC)CC)cc4)c2C3=O)cc1` : -24.6% (active)

Briefly, growth measured for CCOC(=O)C(Cc1cc(I)c(O)c(I)c1)NC(=O)c1ccccc1 (stereo unspecified) : 102% (inactive)

According to the records, this molecule `COc1cccc(NC(=O)c2sc3nc4c(cc3c2N)CN(Cc2ccccc2)CC4)c1` displays growth of 81.2% (inactive)

###

System: RPMI-8226 leukemia
Assay: NCI-60 one-dose screen, 48 h
Settings: 10 µM unless noted
Compounds without any hit were thinned out: in the full panel of roughly 83,000, 20% have a hit. The source made the active and inactive calls. How the source made its calls: active means growth percent below 10; inactive means the rest.
Can you answer with just one of these options? active, inactive

Request: Recorded test call requested for `Cc1ccc(-c2nc(/C=N/Nc3cc(C)nc4ccc(Cl)cc34)c(C)o2)cc1`
Result: active

Request: What outcome does the record of this test show for `CNc1cc2nc3cc(NC)c(C)cc3cc2cc1C` ?
Result: active

Request: Please share the test call associated with `CC#Cc1nc2ccccc2c(=O)[nH]1` .
Result: active

Request: For `O=C(O)c1cccc2c1-c1ccccc1C2=O` , what call appears in the results of this test?
Result: inactive

Request: Look up the recorded call for `COc1ccc(/C=N\NC(=O)c2ccncc2)cc1O` in this test.
Result: inactive

Request: Answer briefly: the call reported for `NCCN1CCN(c2nccc(-c3ccc4ccccc4c3)n2)CC1` in this assay.
Result: active

###

System: PC-3 prostate
Assay: NCI-60 one-dose screen, 48 h
Conditions: 10 µM unless noted
The panel holds about 83,000 compounds, 20% with a hit somewhere; the sample as a whole holds those more often. Activity calls are given as the source filed them. How the source made its calls: active means growth percent below 10; inactive means the rest.
Respond with a class label; see active, inactive

Request: Per the assay record, what outcome was assigned to `O=C(Nc1ccc(Oc2ccc(F)cc2)c(Cl)c1)c1cccnc1` ?
Result: inactive

Request: Identify the outcome logged in this assay for the compound shown: `COc1ccc(CCN2CCCn3c2nc2ccccc2c3=O)cc1`
Result: inactive

Request: Could you check what this test reported for `Brc1cccc(-c2cc(-c3ccc4c(c3)OCCO4)[nH]n2)c1` ?
Result: inactive

Request: Which outcome was entered for the compound COc1ccc(C2Nc3ccccc3-n3cccc32)cc1 (centres undefined) in this test?
Result: inactive

Request: Assay outcome for `COc1ccc(-c2nn(-c3ccccc3)cc2/C=C2\SC(=O)NC2=O)cc1` : what was it?
Result: inactive

Request: Lab log entry: CCOC(=O)C12CCCC1=CC(=O)CC2 (centres undefined) — outcome as called in the assay?
Result: inactive

Request: Just curious, what result did `CC[n+]1ccc2c(c1)C(=O)c1nccc3c1c-2nc1ccccc13` get here?
Result: active

Request: Hi, do you know how `N=c1c2ccccc2nc2n1CCCCC2` came out in this test?
Result: inactive

Request: Record lookup: outcome of this test for NC(CC(=O)O)C(=O)OCc1ccccc1 (centres undefined) ?
Result: inactive

Request: Which result was noted for this compound in the test: `O=C1/C(=C/c2ccc(Cl)c(Cl)c2)CN(C(=O)CCN2CCC(=NO)CC2)C/C1=C\c1ccc(Cl)c(Cl)c1`
Result: active

Request: Name the outcome recorded for `CC(C)Oc1nc2c(c(=O)n(C)c(=O)n2C)n1C` in the assay.
Result: inactive

Request: Given `CC/C(Cc1ccccc1)=C(/c1ccc(O)cc1)c1ccc(OCCN2CCCC2)cc1` , state the outcome it received in this test.
Result: active

Request: Can you look up the reported call for `CC1(C)CC(=O)C(c2c(-c3ccccc3)[nH]c3[nH]c(=S)[nH]c(=O)c23)=C(O)C1` for me?
Result: inactive

Request: Test call, this compound: `C(=N\Nc1ccccn1)/c1ccccn1`
Result: inactive

Request: What call does the record list for `CN1CCOCCOCCOc2ccccc2NC(=O)c2nc(cnc2N)-c2ccc(cc2)S1(=O)=O` ?
Result: inactive

Request: // param item: COc1ccc(N(Cc2cc(OC)c(OC)c(OC)c2)C2OC(=O)c3ccccc32)cc1 (centres undefined) ; yields the recorded call
Result: inactive

Request: Recorded test outcome, item `COc1cc(OC)c(/C=C/S(=O)(=O)Cc2cnc(OC)c(N)c2)c(OC)c1`
Result: inactive

Request: Returns: the outcome recorded for `Oc1c(Cl)cc(Cl)cc1CNc1nccnn1` in this assay.
Result: inactive

Request: What is the recorded call for this compound in the test? `CCN(CC)CCCNc1cccc2c(SCc3ccccc3)ccnc12`
Result: inactive

Request: Hey, what did the test say about `COc1ccc(-c2cn3c(-c4ccc(OC)cc4)cnc3c(Oc3ccc4c(C)cc(=O)oc4c3)n2)cc1` ?
Result: inactive

Request: Called result for `CSc1ccc(N=C=C(c2ccccc2)c2ccccc2)cc1`
Result: inactive

Request: Write down the call the test reported for this compound. Item: `CC(=O)N1CC(Nc2ccc(OC(F)(F)F)cc2)=CC1=O`
Result: inactive

Request: Fill in: this test's call for `CCN(CC)Cc1cc(Nc2c3ccccc3nc3cc(Cl)ccc23)ccc1O` is ___
Result: active

Request: Query: recorded result category for `CCCCCC(=O)N(CCCC)CCCC` in this test
Result: inactive

Request: Record request — test call for `CNC(=O)c1cc(Oc2ccc3nc(NC(=O)Nc4ccc(CN5CCOCC5)c(C(F)(F)F)c4)sc3c2)ccn1`
Result: active

Request: # lookup: test call for CCCCCCCCCCCCCCCCCCNC(=O)[C@H]1CSC(c2ccc(F)c(OC)c2)N1 (some centres undefined)
Result: inactive

Request: What call does the record list for `NC(=S)N/N=C/c1cc(-c2cccc(N)c2)ccn1` ?
Result: inactive

Request: Query: recorded result category for C=C1CC2(OC1=O)C(=O)N(CCCCCCCCCCCCN1C(=O)C3(CC(=C)C(=O)O3)c3ccccc31)c1ccccc12 (centres undefined) in this test
Result: inactive

Request: Just curious, what result did `Cc1ccc(S(=O)(=O)N(CCc2ccc(Cl)cc2)S(=O)(=O)c2ccc(C)cc2)cc1` get here?
Result: inactive

Request: Any idea what this test logged for `COc1ccc2nc3cc(Cl)ccc3c(N3CCN(c4ccnc(N5CCOCC5)n4)CC3)c2c1` ?
Result: inactive

Request: Outcome? COC1C/C(=N\O)C2OC(c3ccccc3)OCC2O1 (centres undefined)
Result: inactive

Request: Given `CCCCCCCCSC1=CC(=O)C(OC)=C(OC)C1=O` , state the outcome it received in this test.
Result: active

Request: Assay outcome for `NC(N)=Nc1ccc(S(=O)(=O)O)cc1` : what was it?
Result: inactive

Request: For `COc1cc(OC)c(/C=C/c2cc[n+](C)c3ccccc23)c(OC)c1` , what call appears in the results of this test?
Result: inactive

Request: Which result was noted for this compound in the test: `CCOC(=O)c1cnc2ccc(Br)cc2c1Nc1cccc(S(=O)(=O)NC)c1`
Result: inactive

Request: Outcome? CC1CN(Cc2ccco2)C(=S)N(c2ccccc2)C1=O (centres undefined)
Result: inactive

Request: // return assay outcome for `Nc1c(C(=O)Nc2cccc3c2OCCO3)sc2nc3c(cc12)C(=O)CCC3`
Result: inactive

Request: Given `COc1cc2c(cc1O)CCc1cc(O)cc(OC)c1-2` , state the outcome it received in this test.
Result: inactive

Request: Dear all, I need the recorded test outcome for `CCCCCCNC(=O)Oc1ccc(/C(=C(\C)c2ccccc2)c2ccc(OCCN(CC)CC)cc2)cc1` , thank you.
Result: inactive

Request: Please indicate how the test categorized CCN(CC)CCCC(C)Nc1ccnc2c(OC)cccc12 (centres undefined) .
Result: inactive

Request: For this compound, state the assay outcome: `CCCCN(CC)CCCCCCCCCCN1CCCc2cc(OC)ccc21`
Result: inactive

Request: Write down the call the test reported for this compound. Item: `CCCCCCCCCC(=O)Oc1ccc(/C(=C(/C)c2ccccc2)c2ccc(OCCN3CCCC3)cc2)cc1`
Result: inactive

Request: What call does the record list for `CN1CCN(Cc2ccc(NC(=O)c3cncc(C#Cc4c(N)ncc5ccc(C#N)cc45)c3)cc2C(F)(F)F)CC1` ?
Result: active

Request: Hi team, can someone confirm the assay call for `COC1=CC(=O)C(OC)=C(OC)C1=O` ?
Result: inactive
